# credit: the supplement of paper PMC10981050

Below, each of the compounds is paired with its reported cell viability value.
System: MOLM14
TEST_PROTOCOL: cell viability relative to vehicle control; higher = less cytotoxic;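 also: after 48 h exposure read by CellTiter-Glo luminescence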
ASSAY_CONDITIONS: 10 µM; SRSF2 genotype: SRSF2 wt/wt
Where a name gives a salt, the structure may show the parent alone.
Kindly provide the numeric value in % only, without the unit symbol.

Past entries and their recorded results:
COMPOUND	REPORTED_MEASUREMENT
C[n+]1c2n(c(=O)c3ccccc31)CCc1c-2[nH]c2ccccc12 [Dehydroevodiamine hydrochloride]	92.9
CC(C)C[C@H](NC(=O)[C@@H](NC(=O)c1cccc(-c2ccccc2)n1)[C@@H](C)O)B(O)O	0.44
COc1cc2c(=O)c3c(O)c([C@@H]4O[C@H](CO[C@@H]5OC[C@](O)(CO)[C@H]5O)[C@@H](O)[C@H](O)[C@H]4O)c(O)cc3oc2cc1O	98.4
Cc1cc(-c2cc(C)c(NCCCS(=O)(=O)O)c(C)c2)cc(C)c1N	108
Cn1cnc(=N)c2[nH]cnc21	92

Reported cell viability for CC(=O)OC(CC(C)C1=C2CC(O)C3C4(C)CCC(=O)C(C)(C)C4CCC3(C)C2(C)CC1)C1OC1(C)C (stereo unspecified) [Alisol B Acetate] : what is it?
87.8

Reported cell viability, compound C=CCc1ccc(OC(C)=O)c(OC)c1 [Eugenyl acetate] : ____
90.1

---

Tested on: MARIMO
TEST_PROTOCOL: cell viability relative to vehicle control; higher = less cytotoxic
ASSAY_CONDITIONS: 10 µM; SRSF2 genotype: SRSF2 wt/wt
Counter-ions that a name gives are not always drawn.
OUTCOME_MEASURE: cell viability (%)
# unit: % | format: bare number

COMPOUND	cell viability (%)
CCCN[C@H]1CCc2nc(N)sc2C1 [Pramipexole dihydrochloride monohydrate]	85.2
COc1cc(OC)c2c(=O)[nH]c(-c3cc(C)c(OCCO)c(C)c3)nc2c1	71.1
C1=N/C2=N/c3ccc(OCCN4CCCC4)c(c3)COC/C=C/COCc3cccc(c3)C(=C1)N2 [Pacritinib (SB1518)]	0.42

Which value of cell viability has been reported for OC[C@H]1O[C@@](CO)(OC[C@@]2(O[C@H]3O[C@H](CO)[C@@H](O)[C@H](O)[C@H]3O)O[C@H](CO)[C@@H](O)[C@@H]2O)[C@@H](O)[C@@H]1O in the records?
99.2

Give its cell viability value. Item: CC1(C)OC[C@@H](COC(=O)CCc2ccc(OC[C@@H](O)CNCCNC(=O)N3CCOCC3)cc2)O1 [Landiolol hydrochloride]
92.6

Please report the recorded cell viability for Brc1ccc2[nH]ccc2c1 .
98

Which measured cell viability value corresponds to CCCCCCCCCCCCN1CCCCCC1=O ?
86.3

cell viability for O=C(O)Cc1ccc(O)cc1 [4-Hydroxyphenylacetic acid] ?
104

Requested field: cell viability. Item: COCCCOc1ccnc(C[S+]([O-])c2nc3ccccc3[nH]2)c1C (centres undefined) [Rebeprazole sodium]
106

---

Each item that follows carries a reported cell viability.
Tested on: MOLM14
TEST_PROTOCOL: cell viability relative to vehicle control; higher = less cytotoxic
ASSAY_CONDITIONS: 10 µM; SRSF2 genotype: SRSF2 wt/wt

Recorded results for 8 compounds are shown here.
COMPOUND	cell viability
COc1ncc(-c2ccc3nccc(-c4ccnnc4)c3c2)cc1NS(=O)(=O)c1ccc(F)cc1F	11.9%
OC[C@H]1O[C@@H](Oc2cc(O)cc(/C=C/c3ccc(O[C@@H]4O[C@H](CO)[C@@H](O)[C@H](O)[C@H]4O)cc3O)c2)[C@H](O)[C@@H](O)[C@@H]1O [Mulberroside A]	97.6%
C=C1C(=O)O[C@H]2[C@H]1CCC(C)=C1CC[C@@](C)(O)[C@@H]12 [Micheliolide]	7.02%
Cc1ccc(S(=O)(=O)Nc2nc3ccccc3nc2Nc2ccc3nsnc3c2)cc1	98.7%
CCCCCCOC(=O)c1cc(=O)c(O)c2c(O)c(O)c(OC)cc2c1	58.9%
CC[N+](CC)(CC)CCOc1cccc(OCC[N+](CC)(CC)CC)c1OCC[N+](CC)(CC)CC [Gallamine triethiodide (Flaxedil)]	99.5%
COc1c(C)c2c(c(O)c1C/C=C(\C)CCC(=O)OCCN1CCOCC1)C(=O)OC2 [Mycophenolate mofetil (CellCept)]	2.92%
CC(C)(C)NS(=O)(=O)c1cncc(-c2cc(F)c3nc(N)nn3c2)c1	103%

// query cell viability value for entry COC1=C2C[C@@H](C)C[C@H](OC)[C@H](O)[C@@H](C)/C=C(\C)[C@H](OC(N)=O)[C@@H](OC)/C=C\C=C(/C)C(=O)NC(=CC1=O)C2=O
1.11%

---

The following compounds are shown together with reported cell viability values.
System: MARIMO
TEST_PROTOCOL: cell viability relative to vehicle control; higher = less cytotoxic
ASSAY_CONDITIONS: 10 µM; SRSF2 genotype: SRSF2 P95H/wt
// note: answer is a bare numeric in %

Examples with their reported cell viability follow.
COMPOUND	READOUT_UNIT	cell viability
C=C1[C@H](OC(=O)/C=C(\C)CC)C[C@@H](C(C)C)[C@@H]2[C@@H]([C@@H](C)OC(C)=O)C(=O)C[C@@H]12	%	57
Cc1cc(C2CCCCC2)n(O)c(=O)c1	%	21.4

Using the record for Oc1ccc2ccccc2c1SSc1c(O)ccc2ccccc12 , report its cell viability.
32.7

Given the compound Cc1coc2c1C(=O)C(=O)c1c-2ccc2c(C)cccc12 , what is its reported cell viability?
70.6

Any idea what its cell viability is? The compound is CCCc1nc(C(C)(C)O)c(C(=O)OCc2oc(=O)oc2C)n1Cc1ccc(-c2ccccc2-c2nnn[nH]2)cc1
109

What value of cell viability has been reported for the following compound? Cc1ncc([N+](=O)[O-])n1CC(C)O (stereo unspecified)
100

---

Listing of entries alongside the reported cell viability.
Tested on: MARIMO
TEST_PROTOCOL: cell viability relative to vehicle control; higher = less cytotoxic
ASSAY_CONDITIONS: 10 µM; SRSF2 genotype: SRSF2 P95H/wt
Write it as a number; the unit % goes unstated.

Sample answers from the record:
COMPOUND	cell viability, %
O=C(Nc1ccc(OC(F)(F)F)cc1)c1sccc1NCc1ccnc2ccccc12	49.2
O=c1[nH]cnc2[nH]ncc12 [Allopurinol Sodium (Aloprim)]	89.1
Nc1ccc(S(=O)(=O)Nc2ncccn2)cc1 [Sodium sulfadiazine]	106

Next up:
What does the record list as cell viability for C=C(c1ccc(C(=O)O)cc1)c1cc2c(cc1C)C(C)(C)CCC2(C)C ?
85.7

---

Test system: MARIMO
TEST_PROTOCOL: cell viability relative to vehicle control; higher = less cytotoxic
ASSAY_CONDITIONS: 10 µM; SRSF2 genotype: SRSF2 wt/wt
Here, each record is paired with measured cell viability data.
Please answer using the number first and the unit second.

# count of solved cases: 5
COMPOUND	cell viability
c1ccc(NCc2ccc(CNc3ccccn3)cc2)nc1	91.9%
COc1cccc(-c2ccc(NC(=O)C3=C(C(=O)O)CCC3)c(F)c2)c1	120%
CC(=O)Nc1cccc2c1c(Sc1ccc(Cl)cc1)c(C)n2CC(=O)O	112%
C[C@H](Cn1cnc2c(N)ncnc21)OCP(=O)(O)O	101%
O=c1cc(-c2ccc(OC3OC(CO)C(O)C(O)C3O)cc2)oc2c(C3OC(CO)C(O)C(O)C3O)c(O)cc(O)c12 (centres undefined)	91.7%

// cell viability lookup, key: COc1cc2oc(=O)ccc2cc1O
94.7%

Item COc1ccc2c(O[C@@H]3C[C@H]4C(=O)N[C@]5(C(=O)NS(=O)(=O)C6CC6)C[C@H]5/C=C\CCCCN(C)C(=O)[C@@H]4C3)cc(-c3nc(C(C)C)cs3)nc2c1C has what recorded cell viability?
75.3%

---

Tested on: MARIMO
TEST_PROTOCOL: cell viability relative to vehicle control; higher = less cytotoxic
ASSAY_CONDITIONS: 10 µM; SRSF2 genotype: SRSF2 wt/wt
OUTCOME_MEASURE: cell viability (%)
Write the answer as a number in %, unit excluded.

COMPOUND	READOUT_UNIT	cell viability
CCN1CCN(Cc2ccc(Nc3ncc(F)c(-c4cc(F)c5nc(C)n(C(C)C)c5c4)n3)nc2)CC1	%	0.64
CC(C(=O)O)C(=O)O [Methylmalonate]	%	110

Form field: cell viability recorded for OCc1cc([C@@H](O)CNCCCCCCOCCOCc2c(Cl)cccc2Cl)ccc1O [Vilanterol Trifenate] with MARIMO (enter value)
86.2

Look up cell viability with MARIMO for this compound: Cc1ccccc1C(C(=O)NC1CCCCC1)N(C(=O)Cn1ccnc1C)c1cccc(F)c1 (stereo not drawn)
98.6

Tell me reported cell viability for NCCOc1ccc(Cl)cc1C(=O)Nc1ccc([N+](=O)[O-])cc1Cl , tested with MARIMO.
37.5

---

Test system: MOLM14
TEST_PROTOCOL: cell viability relative to vehicle control; higher = less cytotoxic
ASSAY_CONDITIONS: 10 µM; SRSF2 genotype: SRSF2 P95H/wt
cell viability by entry:

Worked cases, answers included:
MOLECULE	SYSTEM_TESTED	cell viability
CC1(C)C=Cc2c(ccc3c2OC[C@@H](c2ccc(O)cc2O)C3)O1 [Glabridin]	MOLM14	87.2%
Cc1cccc(Nc2cc(Cl)nc(SCC(=O)O)n2)c1C	MOLM14	95.9%
CC(C)=CCC[C@](C)(O)[C@H]1CC[C@]2(C)[C@@H]1[C@H](O)C[C@@H]1[C@@]3(C)CC[C@H](O)C(C)(C)[C@@H]3[C@@H](O)C[C@]12C [(20S)-Protopanaxatriol]	MOLM14	106%

Now consider a different molecule.
Give its cell viability value. Item: CNC(=O)[C@H](Cc1ccccc1)NC(=O)[C@H](CC(C)C)[C@H](CSc1cccs1)C(=O)NO [Batimastat (BB-94)]
89.4%
